Test system: FB
Experiment: Euclidean distance of Cell Painting phenotypic profile (signed KS, 77 features) to DMSO centroid (dimensionless distance); 5 or 10 uM (library dependent); higher = stronger phenotypic change vs DMSO (phenoactivity)
Conditions: 48 h
Measured Euclidean distance by item

These solved cases illustrate the format of a correct answer.
Molecule	Euclidean distance
CC1(C)S[C@@H]2[C@H](NC(=O)[C@H](N)c3ccc(O)cc3)C(=O)N2[C@H]1C(=O)O [Amoxicillin trihydrate]	0.987
COC(=O)C1=CO[C@@H](O[C@@H]2O[C@H](CO)[C@@H](O)[C@H](O)[C@H]2O)[C@@H]2C(CO)=CC[C@H]12 [Geniposide]	0.949
CSc1ccc(OCc2ncc([N+](=O)[O-])n2C)cc1 [Fexinidazole]	0.976

Q. Lab note: need Euclidean distance with FB for entry `CN(C[C@@H]1COCCO1)S(=O)(=O)Nc1ccc2ccc3ncc(-c4cnn(C)c4)cc3c(=O)c2c1` , please look it up.
A. 3.07

====

Test system: 786-O
Experiment: Euclidean distance of Cell Painting phenotypic profile (signed KS, 77 features) to DMSO centroid (dimensionless distance); 5 or 10 uM (library dependent); higher = stronger phenotypic change vs DMSO (phenoactivity)
Conditions: 48 h
Where a name gives a salt, the structure may show the parent alone.
Readout name: Euclidean distance
Number only, no unit.

Compound	Readout name	Reported measurement
CC(C)CC(=O)Nc1n[nH]c2c1CN(C(=O)C1CCN(C)CC1)C2(C)C	Euclidean distance	3.52
C[C@H](CS)C(=O)N1CCC[C@H]1C(=O)O	Euclidean distance	1.01
O=C(NCc1ccncc1)C12CC3CC(C1)CC(c1ccc(Cl)cc1)(C3)C2	Euclidean distance	1.47
COc1ccc(-c2cc(=O)c3c(O)cc(O[C@@H]4O[C@H](CO[C@@H]5O[C@@H](C)[C@H](O)[C@@H](O)[C@H]5O)[C@@H](O)[C@H](O)[C@H]4O)cc3o2)cc1O	Euclidean distance	0.665

Q. Provide value of Euclidean distance for this record tested with 786-O: `C[C@@H](Oc1cc(-c2cnn(C3CCNCC3)c2)cnc1N)c1c(Cl)ccc(F)c1Cl`
A. 3.69

Q. Give Euclidean distance (786-O) of the following compound: COCCc1ccc(OCC(O)CNC(C)C)cc1 (centres undefined) [Metoprolol Tartrate]
A. 0.573

Q. Observed Euclidean distance on 786-O for `C=C(C)[C@@H]1CC[C@]2(CO)CC[C@]3(C)[C@H](CC[C@@H]4[C@@]5(C)CC[C@H](O)C(C)(C)[C@@H]5CC[C@]43C)[C@@H]12` , please.
A. 1.24

Q. Checklist item: Euclidean distance tested on 786-O, entry `C=CC(=O)Nc1ccc2ncnc(Nc3cccc(Br)c3)c2c1` , value?
A. 1.72

Q. Short answer please: Euclidean distance, 786-O, entry `NCCCCCC(=O)O`
A. 0.84

====

System: 786-O
Experiment: Euclidean distance of Cell Painting phenotypic profile (signed KS, 77 features) to DMSO centroid (dimensionless distance); 5 or 10 uM (library dependent); higher = stronger phenotypic change vs DMSO (phenoactivity)
Settings: 48 h
Readout name: Euclidean distance
Answer with a bare number; do not write a unit.

Q. Request - read-out Euclidean distance | tested on 786-O | compound `O=C(O)CNC(=O)c1ncc(-c2cccc(Cl)c2)cc1O`
A. 1.08

Q. Missing value: Euclidean distance, 786-O, entry `CC[C@H](C)C(=O)O[C@H]1CCC=C2C=C[C@H](C)[C@H](CC[C@@H]3C[C@@H](O)CC(=O)O3)[C@H]21` . Fill in?
A. 2.6

Q. Item CCC1(C)CC(=O)NC1=O (centres undefined) [Ethosuximide] with 786-O - Euclidean distance?
A. 0.782

Q. # get_value(readout= Euclidean distance, system= 786-O) for Clc1ccc2c(N3CCN(CCCN4CCN(c5ccnc6cc(Cl)ccc56)CC4)CC3)ccnc2c1 [Piperaquine phosphate]
A. 1.59

Sourced from the supplement of paper PMC10127200
